Target: Tyrosine-protein kinase ITK/TSK (Homo sapiens) (UniProt Q08881)
Sequence (whole entry): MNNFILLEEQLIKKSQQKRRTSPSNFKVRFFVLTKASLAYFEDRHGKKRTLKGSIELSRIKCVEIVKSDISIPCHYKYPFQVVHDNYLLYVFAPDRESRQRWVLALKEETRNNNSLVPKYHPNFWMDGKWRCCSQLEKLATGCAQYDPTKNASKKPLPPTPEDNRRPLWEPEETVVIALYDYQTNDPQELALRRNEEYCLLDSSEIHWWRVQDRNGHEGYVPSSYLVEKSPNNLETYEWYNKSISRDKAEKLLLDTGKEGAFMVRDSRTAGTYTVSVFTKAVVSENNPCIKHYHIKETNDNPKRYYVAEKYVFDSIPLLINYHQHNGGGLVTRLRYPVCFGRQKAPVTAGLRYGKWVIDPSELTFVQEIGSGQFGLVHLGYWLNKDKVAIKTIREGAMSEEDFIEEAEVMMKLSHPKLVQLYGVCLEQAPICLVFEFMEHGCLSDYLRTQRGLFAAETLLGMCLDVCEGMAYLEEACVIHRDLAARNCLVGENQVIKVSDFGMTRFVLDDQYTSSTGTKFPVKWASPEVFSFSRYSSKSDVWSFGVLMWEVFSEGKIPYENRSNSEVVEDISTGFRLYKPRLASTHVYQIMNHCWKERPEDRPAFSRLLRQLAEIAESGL
Conditions: at 0.1 µM
Examples of compounds with documented inhibition follow.
I'd appreciate it if you included the unit after the number.

Request: State its inhibition: Cc1cc(O)cc(C)c1/C=C/c1cncc(C(N)=O)c1
Result: 1.53%

Request: State its inhibition: CS(=O)(=O)CCNCc1ccoc1-c1ccc2ncnc(Nc3ccc(OCc4ccccc4)cc3)c2c1
Result: -0.12%

Request: State its inhibition: O=C(O[C@H]1CN[C@H](C#Cc2cc3ncnc(Nc4ccc5c(ccn5Cc5cc(F)ccc5F)c4)c3s2)C1)N1CCOCC1
Result: 1.67%

* * *

biological target: Calcium/calmodulin-dependent protein kinase type 1D (Homo sapiens) (UniProt Q8IU85); details: at 1 µM;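 further: reported figure is the mean percent inhibition of CAMK1D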
Sequence (Q8IU85 whole entry, looked up): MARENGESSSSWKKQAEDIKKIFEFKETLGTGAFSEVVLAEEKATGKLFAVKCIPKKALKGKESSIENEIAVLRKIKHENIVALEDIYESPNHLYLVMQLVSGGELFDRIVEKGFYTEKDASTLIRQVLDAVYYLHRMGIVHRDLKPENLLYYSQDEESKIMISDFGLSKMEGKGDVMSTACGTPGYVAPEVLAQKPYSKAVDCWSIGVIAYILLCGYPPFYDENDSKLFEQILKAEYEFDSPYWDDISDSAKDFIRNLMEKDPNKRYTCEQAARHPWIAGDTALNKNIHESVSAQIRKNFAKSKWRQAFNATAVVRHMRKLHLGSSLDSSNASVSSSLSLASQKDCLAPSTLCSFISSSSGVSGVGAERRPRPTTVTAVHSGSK
measurementLabel: inhibition (%)
Report the figure in % without appending any unit label.

Known inhibition results, listed for orientation:
Request: State its inhibition: NS(=O)(=O)c1ccc(N/N=C2\C(=O)Nc3cccc(CCc4ccncc4)c32)cc1
Result: 1.14

Request: State its inhibition: Cc1ccc(-c2cc3c(NC(=O)C4CC4)ncnc3o2)cc1
Result: 1.61

Request: State its inhibition: N#Cc1cccc(Nc2ncc(-c3ccccc3)o2)c1
Result: -1.52

Shifting focus to the molecule that follows.
Request: State its inhibition: CS(=O)(=O)CCNCc1ccoc1-c1ccc2ncnc(Nc3ccc(OCc4ccccc4)cc3)c2c1
Result: -0.02

* * *

Examples of compounds with documented inhibition follow.
molecular target: Phosphatidylinositol 4,5-bisphosphate 3-kinase catalytic subunit alpha isoform (Homo sapiens); settings: at 1 µM
Report the figure in % without appending any unit label.

Request: State its inhibition: Fc1cccc(COc2ccc(Nc3ncncc3C#Cc3ccccc3)cc2Cl)c1
Result: 2.67

***
Request: State its inhibition: CNC(=O)c1ncccc1Nc1nc(Nc2cc3c(cc2OC)CCCN3C(=O)CN(C)C)nc2[nH]ccc12
Result: 1.58

Request: State its inhibition: COc1ccc(Nc2ncc(-c3ccccc3)o2)cc1OC
Result: 0.95

* * *

Target: Serine/threonine-protein kinase D3 (Homo sapiens);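 further: each value is the mean of inhibition readings, from a kinase profiling panel run on the GSK PKIS inhibitor collection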
Sequence (whole entry): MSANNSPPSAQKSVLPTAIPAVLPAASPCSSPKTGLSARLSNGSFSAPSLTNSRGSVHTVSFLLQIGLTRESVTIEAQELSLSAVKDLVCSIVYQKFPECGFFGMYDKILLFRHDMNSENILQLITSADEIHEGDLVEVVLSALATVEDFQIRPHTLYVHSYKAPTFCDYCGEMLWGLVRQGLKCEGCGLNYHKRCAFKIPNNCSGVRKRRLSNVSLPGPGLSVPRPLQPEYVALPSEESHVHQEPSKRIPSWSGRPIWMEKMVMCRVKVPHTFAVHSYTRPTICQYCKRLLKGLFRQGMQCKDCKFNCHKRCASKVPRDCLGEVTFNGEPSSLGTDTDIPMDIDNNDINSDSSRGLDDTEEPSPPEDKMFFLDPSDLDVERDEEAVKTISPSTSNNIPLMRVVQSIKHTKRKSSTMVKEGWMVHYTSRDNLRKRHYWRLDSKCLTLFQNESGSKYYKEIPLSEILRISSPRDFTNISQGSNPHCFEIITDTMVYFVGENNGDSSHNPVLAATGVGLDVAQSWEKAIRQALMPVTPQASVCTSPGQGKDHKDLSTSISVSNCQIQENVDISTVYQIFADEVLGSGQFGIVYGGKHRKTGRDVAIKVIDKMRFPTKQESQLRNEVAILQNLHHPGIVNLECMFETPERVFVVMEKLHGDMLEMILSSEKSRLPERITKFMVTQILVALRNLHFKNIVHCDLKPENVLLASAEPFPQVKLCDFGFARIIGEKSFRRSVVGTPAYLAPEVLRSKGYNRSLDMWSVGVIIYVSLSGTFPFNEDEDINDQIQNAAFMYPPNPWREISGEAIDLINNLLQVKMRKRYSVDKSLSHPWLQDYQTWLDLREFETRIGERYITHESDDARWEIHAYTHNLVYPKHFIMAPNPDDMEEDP
Settings: at 0.1 µM
Examples of compounds with documented inhibition follow.
Report the figure in % without appending any unit label.

Known inhibition results, listed for orientation:
Request: State its inhibition: COc1cccc(Nc2nccc(-c3cnn4ncccc34)n2)c1
Result: 4.36

Request: State its inhibition: COc1cc2c(cc1Nc1nc(Nc3cccc(F)c3C(N)=O)c3cc[nH]c3n1)N(C(=O)CN1CCN(C(C)C)CC1)CC2
Result: 3.64

Request: State its inhibition: CN(C)CCNC(=O)Nc1ccc(N(C)c2ccnc(Nc3ccc(CS(C)(=O)=O)cc3)n2)cc1
Result: 4.97

***
Request: State its inhibition: CCOc1ccc2c(-c3ccnc(Nc4cc(OC)cc(C(F)(F)F)c4)n3)cnn2n1
Result: -0.03

Request: State its inhibition: Fc1cccc(COc2ccc(Nc3ncncc3C#Cc3ccccc3)cc2Cl)c1
Result: 6.12

* * *

molecular target: Tyrosine-protein kinase ITK/TSK (Homo sapiens) (UniProt Q08881); settings: at 1 µM
In this scheme, each record receives a class according to its inhibition; the ranges are lower (below 2%), middle (2% to below 3%), upper (3% or more)

Answered cases to consult:
Request: Hey, which category is CNC(=O)c1sc(-n2cnc3cc(OC)c(OC)cc32)cc1OCc1ccccc1C(F)(F)F in, do you know?
Result: upper

Request: Hey, which category is CS(=O)(=O)CCNCc1ccoc1-c1ccc2ncnc(Nc3ccc(OCc4ccccc4)cc3)c2c1 in, do you know?
Result: lower

Request: Hey, which category is Cc1cc(O)cc(C)c1/C=C/c1cncc(C(=O)OC(C)(C)C)c1 in, do you know?
Result: middle

Request: Hey, which category is CCn1c(-c2nonc2N)nc2cncc(C(=O)NCCNC)c21 in, do you know?
Result: lower

Request: Hey, which category is O=C(Nc1n[nH]c2nnc(-c3cccnc3)cc12)C1CC1 in, do you know?
Result: middle

Request: Hey, which category is N#Cc1cccc(Nc2ncc(-c3ccccc3)o2)c1 in, do you know?
Result: middle

***
Request: Hey, which category is CN(C)CCNC(=O)Nc1ccc(N(C)c2ccnc(Nc3ccc(CS(C)(=O)=O)cc3)n2)cc1 in, do you know?
Result: upper

Request: Hey, which category is COc1cc(Nc2ncc(-c3ccccc3)o2)cc(OC)c1 in, do you know?
Result: upper

Request: Hey, which category is COC(=O)Nc1nc2cc(Oc3ccc(NC(=O)Nc4ccccc4)cc3)ccc2[nH]1 in, do you know?
Result: lower

* * *

Examples of compounds with documented inhibition follow.
target: Phosphatidylinositol 4,5-bisphosphate 3-kinase catalytic subunit alpha isoform (Homo sapiens) (UniProt P42336); details: at 1 µM;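 further: values are mean percent inhibition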
Sequence (P42336 whole entry, canonical isoform): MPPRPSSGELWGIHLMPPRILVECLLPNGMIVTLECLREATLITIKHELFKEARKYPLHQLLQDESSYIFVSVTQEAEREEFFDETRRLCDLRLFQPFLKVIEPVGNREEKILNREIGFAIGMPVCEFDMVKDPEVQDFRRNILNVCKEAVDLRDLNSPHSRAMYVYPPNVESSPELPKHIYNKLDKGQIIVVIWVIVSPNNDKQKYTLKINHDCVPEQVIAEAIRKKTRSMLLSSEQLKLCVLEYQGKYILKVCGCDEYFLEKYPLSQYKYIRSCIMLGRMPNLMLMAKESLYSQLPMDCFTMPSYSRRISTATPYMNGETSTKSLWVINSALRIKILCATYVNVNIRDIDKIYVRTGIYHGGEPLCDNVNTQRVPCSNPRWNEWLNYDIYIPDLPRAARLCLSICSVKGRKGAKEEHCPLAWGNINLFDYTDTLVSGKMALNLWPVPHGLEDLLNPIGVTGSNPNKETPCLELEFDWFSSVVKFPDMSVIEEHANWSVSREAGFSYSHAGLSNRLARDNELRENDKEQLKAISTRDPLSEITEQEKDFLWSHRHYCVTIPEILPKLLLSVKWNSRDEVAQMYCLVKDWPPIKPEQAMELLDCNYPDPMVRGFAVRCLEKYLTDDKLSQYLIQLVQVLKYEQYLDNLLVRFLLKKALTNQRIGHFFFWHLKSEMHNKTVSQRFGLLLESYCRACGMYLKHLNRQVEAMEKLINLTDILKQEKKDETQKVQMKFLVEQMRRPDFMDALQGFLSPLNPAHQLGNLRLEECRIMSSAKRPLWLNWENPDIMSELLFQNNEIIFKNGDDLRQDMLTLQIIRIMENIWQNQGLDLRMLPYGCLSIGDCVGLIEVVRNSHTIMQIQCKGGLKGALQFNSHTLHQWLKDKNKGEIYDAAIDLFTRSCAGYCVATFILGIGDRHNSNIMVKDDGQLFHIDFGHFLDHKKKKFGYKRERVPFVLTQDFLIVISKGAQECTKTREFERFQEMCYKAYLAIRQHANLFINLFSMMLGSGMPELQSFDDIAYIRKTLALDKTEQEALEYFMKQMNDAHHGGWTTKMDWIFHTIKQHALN
Report the figure in % without appending any unit label.

Known inhibition results, listed for orientation:
Request: State its inhibition: COc1ccccc1-c1cc(/C=C2\C(=O)Nc3ncc(Br)cc32)cc(Br)c1O
Result: 18.6

Request: State its inhibition: CS(=O)(=O)Nc1ccc(-c2ccc3c(NC(=O)C4CC4)n[nH]c3c2)cc1
Result: 4.34

Request: State its inhibition: CCn1c(-c2nonc2N)nc2cncc(C(=O)NCCNC)c21
Result: 2.53

Request: State its inhibition: c1ccc(-c2n[nH]cc2-c2ccnc(-c3ccc(OCCn4ccnc4)cc3)c2)nc1
Result: 3.3

Request: State its inhibition: CC(C)c1ccc(-c2cc(-c3c[nH]nc3-c3ccccn3)ccn2)cc1
Result: 1.76

Request: State its inhibition: CS(=O)(=O)CCNCc1ccc(-c2ccc3ncnc(Nc4ccc(OCc5cccc(C(F)(F)F)c5)cc4)c3c2)o1
Result: 4.38

***
Request: State its inhibition: CN1CCC(n2cnc(-c3ccc(F)cc3)c2-c2ccnc(NCCO)n2)CC1
Result: 2.41

Request: State its inhibition: NC(=O)c1ccc2c(-c3ccnc(NCCCO)n3)c(-c3ccc(F)cc3)nn2c1
Result: 6.09

Request: State its inhibition: Cc1cc(O)cc(C)c1/C=C/c1cncc(C(N)=O)c1
Result: 3.67
